# Target System: rat α1β2γ2L type GABAA receptors expressed in Xenopus laevis oocytes (Rattus norvegicus, UniProt P18508+P62813+P63138, INS375LLRMFSFK)
# Construct: expressed in transfected cells; host or cells: Xenopus laevis oocytes
# Sequence (P62813 28-455, stated change not applied): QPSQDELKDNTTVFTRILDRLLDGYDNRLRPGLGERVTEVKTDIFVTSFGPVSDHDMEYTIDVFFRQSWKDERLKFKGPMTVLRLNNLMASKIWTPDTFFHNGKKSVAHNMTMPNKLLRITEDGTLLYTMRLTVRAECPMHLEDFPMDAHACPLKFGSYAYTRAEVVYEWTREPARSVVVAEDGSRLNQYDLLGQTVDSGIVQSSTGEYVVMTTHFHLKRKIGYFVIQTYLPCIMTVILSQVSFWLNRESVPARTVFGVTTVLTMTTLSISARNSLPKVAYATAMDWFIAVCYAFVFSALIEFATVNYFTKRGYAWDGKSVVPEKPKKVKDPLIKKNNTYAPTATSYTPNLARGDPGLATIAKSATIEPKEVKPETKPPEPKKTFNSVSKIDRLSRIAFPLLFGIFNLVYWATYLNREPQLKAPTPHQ
# Sequence (P63138 26-474, stated change not applied): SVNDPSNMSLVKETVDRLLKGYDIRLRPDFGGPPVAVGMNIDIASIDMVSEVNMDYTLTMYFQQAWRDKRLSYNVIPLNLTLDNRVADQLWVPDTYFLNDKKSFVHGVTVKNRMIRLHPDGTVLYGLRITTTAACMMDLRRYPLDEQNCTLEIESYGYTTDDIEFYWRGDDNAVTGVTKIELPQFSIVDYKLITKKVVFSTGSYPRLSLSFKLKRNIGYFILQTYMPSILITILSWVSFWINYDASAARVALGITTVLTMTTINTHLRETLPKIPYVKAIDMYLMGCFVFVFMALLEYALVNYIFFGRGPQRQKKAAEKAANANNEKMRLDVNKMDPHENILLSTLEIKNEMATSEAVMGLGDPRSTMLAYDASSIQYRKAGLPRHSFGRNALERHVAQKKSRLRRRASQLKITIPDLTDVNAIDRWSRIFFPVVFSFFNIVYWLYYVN
# Sequence (P18508 with tags, fused parts or gaps INS375LLRMFSFK): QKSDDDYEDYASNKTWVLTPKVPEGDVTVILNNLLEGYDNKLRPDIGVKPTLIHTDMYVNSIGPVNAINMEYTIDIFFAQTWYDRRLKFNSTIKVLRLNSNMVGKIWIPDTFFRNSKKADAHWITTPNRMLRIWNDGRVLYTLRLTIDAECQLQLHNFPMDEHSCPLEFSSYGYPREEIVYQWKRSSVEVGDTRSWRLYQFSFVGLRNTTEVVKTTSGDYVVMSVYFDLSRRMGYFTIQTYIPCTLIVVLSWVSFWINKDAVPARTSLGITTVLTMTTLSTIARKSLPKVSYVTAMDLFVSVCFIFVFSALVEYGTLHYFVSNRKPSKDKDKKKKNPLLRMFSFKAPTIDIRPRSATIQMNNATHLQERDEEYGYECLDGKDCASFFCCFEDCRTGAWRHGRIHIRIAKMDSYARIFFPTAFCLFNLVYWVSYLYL
# Test Protocol: Potentiation of GABA-mediated chloride currents and direct gating, oocyte electrophysiology
# Type: cell-based
# Reported Conditions: direct current gated by 10 μM compound in the absence of GABA; ± SEM, N ≥ 4
Measure: (gating) 10 μM: ratio of compound only current/2 μM GABA current
Reply with the value as a number alone.

## Input Reported (gating) 10 μM: ratio of compound only current/2 μM GABA current for CC(=O)[C@H]1CC[C@H]2[C@@H]3CC[C@H]4C[C@H](O)CC[C@]4(C)[C@H]3CC[C@]12C(C)=O [ZYC-71] : what is it?
## Output 0.22

## Input What would you report for CC(=O)[C@]12CC[C@H]3[C@@H](CC[C@H]4C[C@H](O)CC[C@@]43C)[C@@H]1CC[C@@H]2CCl [ZYC-74] ?
## Output 0.03

## Input What would you report for C=C[C@H]1CC[C@H]2[C@@H]3C[C@@H](OC)[C@H]4C[C@H](O)CC[C@]4(C)[C@H]3CC[C@]12C(C)=O [KK-143] ?
## Output 0.07

## Input What would you report for C=C[C@H]1CC[C@H]2[C@@H]3CC[C@H]4C[C@H](O)CC[C@]4(C)[C@H]3CC[C@]12C(C)=O [XJ-99] ?
## Output 0.07

###

I'd appreciate it if you could supply melting point values for the items below.

## Input Reported melting point for C=C[C@H]1CC[C@H]2[C@@H]3CC[C@H]4C[C@H](O)CC[C@]4(COC)[C@H]3CC[C@]12C(C)=O [KK-145] : what is it?
## Output 124 to 126 °C

## Input What would you report for C=C[C@H]1CC[C@H]2[C@@H]3CC[C@H]4C[C@H](O)CC[C@]4(C)[C@H]3CC[C@]12C(C)=O [XJ-99] ?
## Output 178 to 179.5 °C

## Input What would you report for CC(=O)[C@]12CC[C@H]3[C@@H](CC[C@H]4C[C@H](O)CC[C@@]43C)[C@@H]1CC[C@@H]2[C@@H](C)O [ZYC-72] ?
## Output 159 to 161 °C

###

Measure: melting point

## Input Reported melting point for CC(=O)[C@]12CC[C@H]3[C@@H](CC[C@H]4C[C@H](O)CC[C@@]43C)[C@@H]1CC[C@@H]2CCl [ZYC-74] : what is it?
## Output 161 to 162 °C

## Input What would you report for CC(=O)[C@]12CC[C@H]3[C@@H](CC[C@H]4C[C@H](O)CC[C@@]43C)[C@@H]1CC[C@@H]2CO [ZYC-73] ?
## Output 166 to 168 °C

## Input What would you report for C=C[C@]12CC[C@H]3[C@@H](CC[C@H]4C[C@H](O)CC[C@@]43C)[C@@H]1CC[C@@H]2[C@@H](C)O [ZYC-76] ?
## Output 193 to 195 °C

## Input What would you report for CC(=O)[C@H]1CC[C@H]2[C@@H]3CC[C@H]4C[C@H](O)CC[C@]4(C)[C@H]3CC[C@]12C(C)=O [ZYC-71] ?
## Output 180 to 181 °C

## Input What would you report for C=C[C@H]1CC[C@H]2[C@@H]3C[C@@H](OC)[C@H]4C[C@H](O)CC[C@]4(C)[C@H]3CC[C@]12C(C)=O [KK-143] ?
## Output 158 to 160 °C

## Input What would you report for C=C[C@H]1CC[C@H]2[C@@H]3CC[C@H]4C[C@H](O)CC[C@]4(C)[C@H]3[C@@H](OC)C[C@]12C(C)=O [KK-144] ?
## Output 127 to 129 °C

## Input What would you report for C=C[C@H]1CC[C@H]2[C@@H]3CC[C@H]4C[C@H](O)[C@@H](OC)C[C@]4(C)[C@H]3CC[C@]12C(C)=O [KK-140] ?
## Output 155 to 157 °C

## Input What would you report for C=C[C@]12CC[C@H]3[C@@H](CC[C@H]4C[C@H](O)CC[C@@]43C)[C@@H]1CC[C@@H]2C(C)=O [ZYC-75] ?
## Output 146 to 147 °C

## Input What would you report for CC[C@H]1CC[C@H]2[C@@H]3CC[C@H]4C[C@H](O)CC[C@]4(C)[C@H]3CC[C@]12C(C)=O [XJ-100] ?
## Output 182 to 184 °C

###

# Target System: rat α1β2γ2L type GABAA receptors expressed in Xenopus laevis oocytes (Rattus norvegicus, UniProt P18508+P62813+P63138, INS375LLRMFSFK)
# Construct: expressed in transfected cells; host or cells: Xenopus laevis oocytes
# Test Protocol: Potentiation of GABA-mediated chloride currents and direct gating, oocyte electrophysiology
# Assay type: cell-based
# Reported Conditions: direct current gated by 10 μM compound in the absence of GABA; ± SEM, N ≥ 4
# Protocol: The compounds of the present disclosure were evaluated for the ability to potentiate chloride currents mediated by 2 μM GABA at rat α1β2γ2L type GABAA receptors expressed in Xenopus laevis oocytes and the results are shown in Table 2.
I'd appreciate it if you could supply (gating) 10 μM: ratio of compound only current/2 μM GABA current values for the items below.
Reply with the value as a number alone.

## Input Reported (gating) 10 μM: ratio of compound only current/2 μM GABA current for C=C[C@H]1CC[C@H]2[C@@H]3CC[C@H]4C[C@H](O)CC[C@]4(C)[C@H]3[C@@H](OC)C[C@]12C(C)=O : what is it?
## Output 0.18

## Input What would you report for C=C[C@H]1CC[C@H]2[C@@H]3CC[C@H]4C[C@H](O)[C@@H](OC)C[C@]4(C)[C@H]3CC[C@]12C(C)=O ?
## Output 0.27

## Input What would you report for C=C[C@H]1CC[C@H]2[C@@H]3CC[C@H]4C[C@H](O)CC[C@]4(COC)[C@H]3CC[C@]12C(C)=O ?
## Output 0.56

## Input What would you report for CC(=O)[C@]12CC[C@H]3[C@@H](CC[C@H]4C[C@H](O)CC[C@@]43C)[C@@H]1CC[C@@H]2[C@@H](C)O ?
## Output −0.03

## Input What would you report for C=C[C@]12CC[C@H]3[C@@H](CC[C@H]4C[C@H](O)CC[C@@]43C)[C@@H]1CC[C@@H]2[C@@H](C)O ?
## Output 0.04

## Input What would you report for CC[C@H]1CC[C@H]2[C@@H]3CC[C@H]4C[C@H](O)CC[C@]4(C)[C@H]3CC[C@]12C(C)=O ?
## Output −0.06

###

# Target System: picrotoxin binding site on GABAA receptors
# Test Protocol: [35S]-TBPS displacement (inhibition of [35S]-TBPS binding)
# Reported Conditions: non-competitive displacement of [35S]-TBPS; ± SEM, duplicate experiments in triplicate
I'd appreciate it if you could supply log10 IC50 values for the items below.
Values reflect log10 of reported IC50 (nM).

## Input Reported log10 IC50 for C=C[C@H]1CC[C@H]2[C@@H]3CC[C@H]4C[C@H](O)CC[C@]4(C)[C@H]3CC[C@]12C(C)=O [XJ-99] : what is it?
## Output 1.63

## Input What would you report for CC[C@H]1CC[C@H]2[C@@H]3CC[C@H]4C[C@H](O)CC[C@]4(C)[C@H]3CC[C@]12C(C)=O [XJ-100] ?
## Output 2.44

## Input What would you report for C=C[C@H]1CC[C@H]2[C@@H]3CC[C@H]4C[C@H](O)[C@@H](OC)C[C@]4(C)[C@H]3CC[C@]12C(C)=O [KK-140] ?
## Output 1.23

## Input What would you report for CC(=O)[C@]12CC[C@H]3[C@@H](CC[C@H]4C[C@H](O)CC[C@@]43C)[C@@H]1CC[C@@H]2[C@@H](C)O [ZYC-72] ?
## Output 2.99

## Input What would you report for C=C[C@]12CC[C@H]3[C@@H](CC[C@H]4C[C@H](O)CC[C@@]43C)[C@@H]1CC[C@@H]2[C@@H](C)O [ZYC-76] ?
## Output 2.70

## Input What would you report for C=C[C@H]1CC[C@H]2[C@@H]3C[C@@H](OC)[C@H]4C[C@H](O)CC[C@]4(C)[C@H]3CC[C@]12C(C)=O [KK-143] ?
## Output 2.43

## Input What would you report for CC(=O)[C@]12CC[C@H]3[C@@H](CC[C@H]4C[C@H](O)CC[C@@]43C)[C@@H]1CC[C@@H]2CO [ZYC-73] ?
## Output 3.16

## Input What would you report for C=C[C@H]1CC[C@H]2[C@@H]3CC[C@H]4C[C@H](O)CC[C@]4(COC)[C@H]3CC[C@]12C(C)=O [KK-145] ?
## Output 1.72

## Input What would you report for C=C[C@H]1CC[C@H]2[C@@H]3CC[C@H]4C[C@H](O)CC[C@]4(C)[C@H]3[C@@H](OC)C[C@]12C(C)=O [KK-144] ?
## Output 1.86

## Input What would you report for CC(=O)[C@H]1CC[C@H]2[C@@H]3CC[C@H]4C[C@H](O)CC[C@]4(C)[C@H]3CC[C@]12C(C)=O [ZYC-71] ?
## Output 1.91

## Input What would you report for CC(=O)[C@]12CC[C@H]3[C@@H](CC[C@H]4C[C@H](O)CC[C@@]43C)[C@@H]1CC[C@@H]2CCl [ZYC-74] ?
## Output 2.62
